Experiment: 28-day repeat oral dose toxicity study, toxicokinetics
Type: in vivo, Beagle dogs
Conditions: female, Beagle, dog, plasma, po, 25 mg/kg, KH176 25 mg/kg/dose BID oral, F, Day 28, plasma, read-out: Cmax
quantity kind: Cmax (ng/mL)
// return numeric value only (unit: ng/mL, not printed)

Prompt: Specify measured Cmax for Cc1c(C)c2c(c(C)c1O)CC[C@@](C)(C(=O)N[C@@H]1CCCNC1)O2.Cl .
Completion: 5190

* * *

Test: 28-day repeat oral dose toxicity study, toxicokinetics
Assay type: in vivo, Beagle dogs
Details: male, Beagle, dog, plasma, po, 10 mg/kg, KH176 10 mg/kg/dose BID oral, M, Day 1, plasma
quantity kind: half-life (h)
Form entry: value (h) — number only.

Prompt: Provide half-life value for the following compound: Cc1c(C)c2c(c(C)c1O)CC[C@@](C)(C(=O)N[C@@H]1CCCNC1)O2.Cl
Completion: 1.4
